Data provenance is the supplement of paper PMC10126150.

Listed next: entries and their corresponding switch fluorescence ratio.
test system: ATP; assay: switch fluorescence ratio, 500 uM ATP over buffer (Cy3 cluster intensity, sum of 5 cycles each) (fold (ratio)); higher = stronger signal-on switching upon ATP binding; sequences stand for … in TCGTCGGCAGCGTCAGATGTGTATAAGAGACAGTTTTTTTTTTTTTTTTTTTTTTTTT…TC; conditions: aptamer strand: ATP DNA aptamer (quencher-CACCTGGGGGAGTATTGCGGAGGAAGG + anchor), 100 nM annealed; ATP concentration: 500 uM;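 further: ATP exposure 15 min at 22 °C before imaging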
I only need the number, thanks.

GAGGTTGTAG; 0.994
AATCTTGGGC; 0.977
CGGGGGGGA; 1.02

Next sequence, switch fluorescence ratio to be filled in.
Give the reported value of switch fluorescence ratio for this record: TAGTTGGAAG
1.02
